The values you see were collected from ChEMBL document CHEMBL3301451.

tested on: Plasmodium falciparum; assay: MMV: P. falciparum NF54 functionally mature Stage V gametocytes were incubated for 24 hr in the presence of the test compounds. Gamete formation was then triggered by addition of 2uM xantheurenic acid and temperature decrease to ~20C. Male gamete exflagellation was recorded and analysed by automated microscopy after 20 min. All compounds were tested in 4 independent experiments and data presented here is the mean.; type: functional; design: concentration or dose not given beside the values
measurement.type: inhibition (%)
Please respond with the number in % and leave the unit unwritten.

The examples below pair each entry with its known result.
# molecule, system.under.test, recorded.number
records = [
    ("N=c1c2ccccc2nnn1-c1cccc(C(F)(F)F)c1", "Plasmodium falciparum", 51.2),
    ("COc1ccccc1CNC(=O)C1c2ccccc2C(=O)N(CC(C)C)C1c1cccs1 (stereo not drawn)", "Plasmodium falciparum", 8.38),
    ("CCOc1ccc2nc(C)cc(Nc3ccc(N(C)C)cc3)c2c1.Cl", "Plasmodium falciparum", -23.6),
    ("COCCn1c(C)nc2ccccc2c1=O", "Plasmodium falciparum", 22.3),
]

Turning now to a further molecule:
Here COc1ccc2c(c1)C1(Nc3ccccc3-c3nc4ccccc4n31)C(=O)N2 (stereo not drawn) was tested on Plasmodium falciparum, and its inhibition came to 48.2
